Measured values drawn from patent US20010044445A1 for this set.

test system: Human peripheral blood mononuclear cells; assay: Human Concanavalin-A Proliferation Assay (Con HU Assay); assay type: cell-based; settings: Homo sapiens, PBMC, concanavalin-A stimulated human PBMC, tritiated thymidine
readout_kind: pIC50
Scale note: pIC50 = -log10(concentration in M).

// O=C(Nc1ccc(-n2nc(C(F)(F)F)cc2Cl)cc1)c1cccnc1F : pIC50 value = 6.76

// O=C(Nc1ccc(-n2nc(C(F)(F)F)cc2C(F)(F)F)cc1)c1ccno1 : pIC50 value = 6.29

// O=C(Nc1ccc(F)cc1F)c1ccc(-n2nc(C(F)(F)F)cc2C(F)(F)F)cc1 : pIC50 value = 6.44

// O=C(Nc1ccc(-n2nc(C(F)(F)F)cc2C(F)(F)F)cc1)c1ccc([N+](=O)[O-])o1 : pIC50 value = 6.43

// CC(=O)Oc1ccccc1C(=O)Nc1ccc(-n2nc(C(F)(F)F)cc2C(F)(F)F)cc1 : pIC50 value = 5.50

// O=C(Nc1ccc(-n2nc(C(F)(F)F)cc2C(F)(F)F)cc1)C1=CCCCC1 : pIC50 value = 7.01

// Nc1cnccc1C(=O)Nc1ccc(-n2nc(C(F)(F)F)cc2C(F)(F)F)cc1 : pIC50 value = 6.43

// O=C(Nc1ccc(-n2nc(C(F)(F)F)cc2C(F)(F)F)cc1)c1ccccc1Br : pIC50 value = 7.15

// FC(F)(F)c1cc(C(F)(F)F)n(-c2ccc(NCc3ccccc3Cl)cc2)n1 : pIC50 value = 6.33

// O=C(Nc1ccc(-n2nc(C(F)(F)F)cc2-c2ccco2)cc1)c1ccccc1F : pIC50 value = 6.63

// O=C(Nc1ccc(-n2nc(C(F)(F)F)cc2Cl)cc1)c1ccncc1Cl : pIC50 value = 6.93

// N#Cc1cc(C(F)(F)F)nn1-c1ccc(NC(=O)c2cccnc2F)cc1 : pIC50 value = 6.58

// O=C(Nc1ccc(-n2nc(C(F)(F)F)cc2OC(F)F)cc1)c1cccnc1F : pIC50 value = 7.05

// O=C(Nc1ccc(-n2nc(C(F)(F)F)cc2C(F)(F)F)cc1)c1ccccn1 : pIC50 value = 4.98

// Cc1noc(C)c1C(=O)Nc1ccc(-n2nc(C(F)(F)F)cc2C)cc1 : pIC50 value = 5.98

// O=C(Nc1ccc(-n2nc(-c3nccs3)cc2Cl)cc1)c1ccncc1F : pIC50 value = 6.54

// O=C(Nc1ccc(-n2nc(C(F)(F)F)cc2C(F)(F)F)cc1)c1ccncc1 : pIC50 value = 6.81

* * *

test system: Human peripheral blood mononuclear cells; test: Human Concanavalin-A Proliferation Assay (Con HU Assay); assay type: cell-based; conditions: concanavalin-A stimulated human PBMC, tritiated thymidine
readout_kind: IC50
Don't forget the unit after the value.

// Cc1nnsc1C(=O)Nc1ccc(-n2nc(C(F)(F)F)cc2C(F)(F)F)cc1 : IC50 value = 173 nM

// COc1ccc(C(=O)Nc2ccc(-n3nc(C(F)(F)F)cc3C(F)(F)F)cc2)cc1OC : IC50 value = 4920 nM

// O=C(Nc1ccc(-n2nc(C(F)(F)F)cc2C(F)(F)F)cc1)c1ccc(O)c(Br)c1 : IC50 value = 760 nM

// O=C(Nc1ccc(Cl)cc1)c1ccc(-n2nc(C(F)(F)F)cc2C(F)(F)F)cc1 : IC50 value = 301 nM

// Cc1nnsc1C(=O)Nc1ccc(-n2nc(-c3cccnc3)cc2[N+](=O)[O-])cc1 : IC50 value = 221 nM

// O=C(Nc1ccc(-n2nc(C(F)(F)F)cc2C(F)(F)F)cc1)c1cc([N+](=O)[O-])c(Cl)c([N+](=O)[O-])c1Cl : IC50 value = 340 nM

// O=C(Nc1ccc(-n2nc(C(F)(F)F)cc2C(F)(F)F)cc1)c1cccc2ccccc12 : IC50 value = 1040 nM

// O=C(Nc1ccc(-n2nc(C(F)(F)F)cc2C(F)(F)F)cc1)C1CCCC1 : IC50 value = 256 nM

// N#Cc1cc(-c2nccs2)nn1-c1ccc(NC(=O)c2ccncc2F)cc1 : IC50 value = 191 nM

// CCCCCCCc1ccc(C(=O)Nc2ccc(-n3nc(C(F)(F)F)cc3C(F)(F)F)cc2)cc1 : IC50 value = 41000 nM

// O=C(Nc1ccc(-n2nc(C(F)(F)F)cc2C(F)(F)F)cc1)C1C=CCCC1 (stereo not drawn) : IC50 value = 202 nM

// N#Cc1cccc(NCc2ccc(-n3nc(C(F)(F)F)cc3C(F)(F)F)cc2)c1 : IC50 value = 7280 nM

// O=C(Nc1ccc(-n2nc(C(F)(F)F)cc2C(F)(F)F)cc1)C1CCCCC1 : IC50 value = 285 nM

// COc1cc(SC)ccc1C(=O)Nc1ccc(-n2nc(C(F)(F)F)cc2C(F)(F)F)cc1 : IC50 value = 8870 nM

// O=C(Nc1ccc(-n2nc(C(F)(F)F)cc2C(F)(F)F)cc1)c1cc([N+](=O)[O-])cc([N+](=O)[O-])c1 : IC50 value = 2770 nM
